// reported % responder for each item listed
system: HDM-specific T cells expanded from PBMCs of HDM-allergic individuals; experiment: T cell reactivity of peptides: IFN/IL-5 ELISPOT on in vitro expanded HDM-specific T cells; format: cell-based, human; conditions: percentage of donors that produced a response against the peptide, 10 μg/mL
Field: value (include unit after the number)

Some solved entries appear below for comparison.
143 (FNTAVLFDRQGKLLG; Immunogenic fragment) [compound 143]
10%
49 (KGIIPGIKVDTGVVT; Immunogenic fragment) [compound 49]
10%
118 (SSLQYRYRFLAHLYT; Immunogenic fragment) [compound 118]
20%
88 (MVYSDQLIHVTSRLP; Immunogenic fragment) [compound 88]
5%
129 (INILGVPKLPTSFKL; Immunogenic fragment) [compound 129]
20%
52 (EIIRRFEAKGFKLVA; Immunogenic fragment) [compound 52]
5%
141 (KHEIFVVADLIDRKS; Immunogenic fragment) [compound 141]
5%
98 (WMDMFAEYHKTIAFD; Immunogenic fragment) [compound 98]
5%

Query: Recorded % responder of 86 (RLYSVELDGSHLIVR; Immunogenic fragment) [compound 86] , please.
Reply: 5%

Query: Now the same for 123 (YDDIDYVFVRGGSII; Immunogenic fragment) [compound 123]
Reply: 30%

Query: Now the same for 94 (FTNLNTTYTRNRAVG; Immunogenic fragment) [compound 94]
Reply: 15%

Query: Now the same for 72 (KRYLLRLEHFYQSNE; Immunogenic fragment) [compound 72]
Reply: 5%

Query: Now the same for EARENYITFTEPFMI (Immunogenic fragment) [Peptide 179, fragment of A0023 Der f/p]
Reply: 5%

Query: Now the same for 85 (DQVLRLKFIDANQKR; Immunogenic fragment) [compound 85]
Reply: 20%

Query: Now the same for 139 (ELNFKVYEDAAALAK; Immunogenic fragment) [compound 139]
Reply: 10%

Query: Now the same for LQHFNNAIKQLNTED (Immunogenic fragment) [Peptide 189, fragment of A0023 Der f]
Reply: 10%

Query: Now the same for DWRNLYPRKYAFALP (Immunogenic fragment) [Peptide 186, fragment of A0023 Der f]
Reply: 5%

Query: Now the same for 125 (FFRSGSIIPIQGPQN; Immunogenic fragment) [compound 125]
Reply: 5%

----------
tested on: HDM-specific T cells expanded from PBMCs of HDM-allergic individuals; assay: T cell reactivity of peptides: IFN/IL-5 ELISPOT on in vitro expanded HDM-specific T cells; format: cell-based, human; settings: percentage of donors that produced a response against the peptide, 10 μg/mL
// reported % responder for each item listed

Some solved entries appear below for comparison.
77 (ANQPISSLKNRLHYR; Immunogenic fragment) [compound 77]
5%
58 (ITRLREAMGVMQHHD; Immunogenic fragment) [compound 58]
5%

Query: Could you share what % responder was measured for 65 (LISIPEFVRKIPGRK; Immunogenic fragment) [compound 65] , tested on HDM-specific T cells expanded from PBMCs of HDM-allergic individuals?
Reply: 5%

Query: Now the same for YITFTEPFMINQLAA (Immunogenic fragment) [Peptide 180, fragment of A0023 Der f/p]
Reply: 10%

Query: Now the same for 91 (GVFLFNSNAMDILTQ; Immunogenic fragment) [compound 91]
Reply: 5%

Query: Now the same for SLRGVTIRNAPFLEE (Immunogenic fragment) [Peptide 178, fragment of A0023 Der f]
Reply: 10%

Query: Now the same for 105 (SLSMAMATNAALTKL; Immunogenic fragment) [compound 105]
Reply: 5%

Query: Now the same for 140 (EDGLIYNIASREKAD; Immunogenic fragment) [compound 140]
Reply: 5%

Query: Now the same for 144 (RYHKMHLFGEMTMNI; Immunogenic fragment) [compound 144]
Reply: 10%
